Where do these numbers come from? They come from paper PMC9482650.

# studyTarget: T1, PDZD2_2, O15018
# T1 sequence (O15018 329-429, limits assumed, looked up): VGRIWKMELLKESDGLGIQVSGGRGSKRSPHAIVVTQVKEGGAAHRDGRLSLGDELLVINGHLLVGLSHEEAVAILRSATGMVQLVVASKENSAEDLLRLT
# assaySummary: holdup assay
# Parameters: key: below the threshold = too weak to quantify, mostly under pKd 3.1 to 4
# statedConditions: plain residues with an end cap or a label only (N-terminal biotin on a linker: ado-ado)
readoutKind: pKd

>>> observedresult("QKNKDREYYV [NRXN3, Q9HDB5]")
4.56
>>> observedresult("HDDYFYHDEL [RCN2, Q14257]")
"below the threshold"
>>> observedresult("KLQNPNQSVV [TYRP1, P17643]")
4.57
>>> observedresult("KAEEKPPSKV [SCN4B, Q8IWT1]")
3.95
>>> observedresult("TFSRRPKTRV [CD226, Q15762]")
"below the threshold"

Exercise: I have this binder here, VKQYADVEGF [HNRNPK, P61978;P61978-2] , and I need its recorded pKd.
Solution: below the threshold

Exercise: Need pKd, item GSQSQVETEA [FKBP4, Q02790]
Solution: below the threshold

Exercise: Given LLQEEWETVM [PTH1R, Q03431] , state its recorded pKd.
Solution: below the threshold
